- Test system: T47D cells
- method: Cell-based assay: anti-proliferative activity, Cell Counting Kit-8, 72 hours (T47D)
- condition_info: Homo sapiens, T47D, 72 h
Hi there, I'd appreciate the recorded IC50 for every entry that follows.
Please give a number only; it is taken to be in µM.

compound O=C(c1cnc2ccc(-c3cc(Cl)c(O)c(Cl)c3)cc2c1NC1CCC(N2CCC(F)(F)C2)CC1)C1CC1 (stereo not shown) [Example 664] , IC50 observed: 1.7

Per the records, this compound ( CN(C)C[C@]1(O)CC[C@@H](Nc2c(C(=O)C3CC3)cnc3ccc(-c4cc(F)c(O)c(Cl)c4)cc23)CC1 [Example 673] ) has IC50 equal to 0.16

Item: COc1cc(-c2ccc3ncc(C(=O)C4CC4)c(Nc4ccc(NCCO)nc4)c3c2)cc(Cl)c1O [Example 677] | IC50: 0.33

Sample CN(C)Cc1ccc(Nc2c(S(C)(=O)=O)cnc3ccc(-c4ccc(O)c(Cl)c4)cc23)cc1 [Example 411] ; IC50 observed: 0.29

----------
For each record, write down the corresponding IC50.
- Test system: HT-1197 cells
- method: Cell-based assay: anti-proliferative activity, Cell Counting Kit-8, 72 hours (HT-1197, negative control without MELK expression)
- condition_info: Homo sapiens, HT1197, 72 h, HT1197 cells (negative control), 72 hours
Structures can show the parent of a compound that is named as a salt.
Express the result in µM but write the number alone.

According to the records, this compound NC1CCN(c2ccc(Nc3c(C(=O)C4CC4)cnc4ccc(-c5cc(F)c(O)c(Cl)c5)cc34)cn2)C1 (stereo not drawn) displays IC50 of 0.53

Memo: COc1cc(-c2cc3c(Nc4ccc(CN(C)C)cc4)c(C(=O)C4CC4)cnc3cc2F)cc(Cl)c1O , reported IC50: 3.7

get_value(item= CC(=O)c1cnc2ccc(-c3cc(F)c(O)c(Cl)c3)cc2c1Nc1cnc(C)c(CCN2CCCC2)c1 , readout=IC50) returns 53

// NC1CCN(c2ccc(Nc3c(C(=O)C4CC4)cnc4ccc(-c5cc(F)c(O)c(Cl)c5)cc34)cn2)CC1 : IC50 value = 3.1

IC50 for COc1cc(-c2ccc3ncc(C(=O)C4CC4)c(Nc4ccc(C(N)=O)cc4)c3c2)cc(Cl)c1O is 12

Sure, the documented IC50 for [2H]C([2H])([2H])N(C[C@H]1CC[C@H](Nc2c(C(C)=O)cnc3ccc(-c4cc(Cl)c(O)c(Cl)c4)cc23)CC1)C([2H])([2H])[2H] [Example 864, dihydrochloride] is 1.3

----------
- System: T47D cells
- method: Cell-based assay: anti-proliferative activity, Cell Counting Kit-8, 72 hours (T47D)
- condition_info: Homo sapiens, T47D, 72 h
Where a name gives a salt, the structure may show the parent alone.
I'd be grateful if you could share measured log10 IC50 for these entries.
Base-10 log of IC50, unit µM.

Lab note: COc1cc(-c2ccc3ncc(C(=O)C4CC4)c(NC4CCC(C)(N)CC4)c3c2)cc(Cl)c1O (centres unmarked) gave log10 IC50 of -1.00

get_value(item= CC(=O)c1cnc2ccc(-c3cc(F)c(O)c(Cl)c3)cc2c1N[C@H]1CC[C@H](CN2CCN(C)CC2)CC1 [Example 781, hydrochloride] , readout=log10 IC50) returns -1.00

Reported log10 IC50 for N[C@H]1CC[C@H](n2cc(Nc3c(C(=O)C4CC4)cnc4ccc(-c5cc(Cl)c(O)c(Cl)c5)cc34)cn2)CC1 [Example 706, dihydrochloride] was -1.38

The measured log10 IC50 associated with NC1CCN(c2ccc(Nc3c(C(=O)C4CC4)cnc4ccc(-c5cc(F)c(O)c(Cl)c5)cc34)cn2)C1 (centres unmarked) reads -2.03

# log10 IC50 (molecule: CN(C)Cc1ccc(Nc2c(C#N)cnc3ccc(-c4cc(F)c(O)c(Cl)c4)cc23)cc1 ) is -0.01

// NC1CCCN(c2ccc(Nc3c(C(=O)C4CC4)cnc4ccc(-c5cc(Cl)c(O)c(Cl)c5)cc34)cn2)C1 (centres unmarked) : log10 IC50 value = -1.52

Per the record, CN(C)CC1CCN(c2c(C(=O)C3CCCC3)cnc3ccc(-c4cc(F)c(O)c(Cl)c4)cc23)CC1 has log10 IC50 of 0.30

Note to self: log10 IC50 recorded for COc1cc(-c2ccc3ncc(C(C)=O)c(Nc4cnc(N5CCNCC5)nc4)c3c2)cc(Cl)c1O was -0.66

So, CC(=O)c1cnc2ccc(-c3cc(F)c(O)c(Cl)c3)cc2c1Nc1cccc(CCN2CCN(C)CC2)c1 ? Its log10 IC50 was 0.18

Record NC1CCCN(c2ncc(Nc3c(C(=O)C4CC4)cnc4ccc(-c5cc(Cl)c(O)c(Cl)c5)cc34)cn2)C1 (centres unmarked) , field log10 IC50: -2.16

// recorded log10 IC50 for CC(=O)c1cnc2ccc(-c3cc(F)c(O)c(Cl)c3)cc2c1N1CCN(C(=O)CN(C)C)CC1 : 0.04

# log10 IC50 (molecule: COc1cc(-c2ccc3ncc(C(=O)C4CC4)c(Nc4ccc(N5CCC(O)C5)nc4)c3c2)cc(Cl)c1O (centres unmarked) ) is -0.62

log10 IC50 reported for this molecule CN[C@H]1CC[C@H](Nc2c(C(=O)C3CC3)cnc3ccc(-c4cc(Cl)c(O)c(Cl)c4)cc23)CC1 : -1.27

log10 IC50 in this record for CC(=O)c1cnc2ccc(-c3cc(Cl)c(O)c(Cl)c3)cc2c1Nc1cccc(CCN2CCCC2)c1 : -0.43

log10 IC50 measured on CN1CCC(n2cc(Nc3c(C(=O)C(C)(C)C)cnc4ccc(-c5cc(F)c(O)c(Cl)c5)cc34)cn2)CC1 [Example 930, hydrochloride] = 0.23

Measured log10 IC50 of CN(C)C[C@H]1CC[C@H](Nc2c(C(=O)C(C)(C)C)cnc3ccc(-c4cc(Cl)c(O)c(Cl)c4)cc23)CC1 [Example 918, hydrochloride] : 0.48

The molecule listed as COc1cc(-c2ccc3ncc(C(=O)C4CC4)c(Nc4ccc(N5CCC(N)CC5)nc4)c3c2)cc(Cl)c1O shows log10 IC50 equal to -1.00

Measured log10 IC50, COc1cc(-c2ccc3ncc(C(C)=O)c(Nc4ccc(N5CCNCC5)nc4)c3c2)cc(Cl)c1O [Example 704, hydrochloride] : -0.77

Value of measured log10 IC50 for the entry CS(=O)(=O)c1cnc2ccc(-c3cc(F)c(O)c(Cl)c3)cc2c1Nc1ccc(N2CCCC(N)C2)nc1 (centres unmarked) : -0.72

Briefly, log10 IC50 measured for CN(C)CCc1cccc(Nc2c(C(=O)C3CC3)cnc3ccc(-c4cc(F)c(O)c(Cl)c4)cc23)c1 : -0.43

----------
- Tested on: T47D cells
- method: Cell-based assay: anti-proliferative activity, Cell Counting Kit-8, 72 hours (T47D)
- condition_info: Homo sapiens, T47D, 72 h
value_type: IC50 (µM)
Quick note: give the figure in µM, leave out the unit.

Item: CCN(CC)C1CCC(Nc2c(C(=O)C3CCCC3)cnc3ccc(-c4ccc(O)c(Cl)c4)cc23)CC1 (centres unmarked) [Example 385] | IC50: 1.7

Note to self: IC50 recorded for COc1cc(-c2ccc3ncc(S(C)(=O)=O)c(N4CCC(CN5CCCC5)CC4)c3c2)cc(Cl)c1O [Example 412] was 1.4

IC50 measured on CC(=O)c1cnc2ccc(-c3cc(F)c(O)c(Cl)c3)cc2c1N[C@H]1CC[C@H](CN2CCC[C@H]2CO)CC1 [Example 844] = 0.067

Notebook: O=C(c1cnc2ccc(-c3cc(F)c(O)c(Cl)c3)cc2c1N[C@H]1CC[C@H](CN2CC[C@@H](F)C2)CC1)C1CC1 [Example 570] , IC50 read as 0.14

// sample CC(=O)c1cnc2ccc(-c3cc(F)c(O)c(Cl)c3)cc2c1N[C@H]1CC[C@H](NC(=O)[C@H](C)N)CC1 (stereo in doubt) [Example 878] , its IC50 was 0.027

----------
- Tested on: HT-1197 cells
- method: Cell-based assay: anti-proliferative activity, Cell Counting Kit-8, 72 hours (HT-1197, negative control without MELK expression)
- condition_info: Homo sapiens, HT1197, 72 h, HT1197 cells (negative control, no MELK expression), 72 hours
Where a name gives a salt, the structure may show the parent alone.
value_type: IC50

IC50 recorded for this compound, CC(=O)c1cnc2ccc(-c3cc(F)c(O)c(Cl)c3)cc2c1N[C@H]1CC[C@H](CN2CCN(C)CC2)CC1 [Example 781, hydrochloride] , is 3.3 µM

Briefly, IC50 measured for CC(=O)c1cnc2ccc(-c3cc(Cl)c(O)c(Cl)c3)cc2c1N[C@H]1CC[C@H](N(C)C)CC1 : 1.7 µM

The value of IC50 measured for the compound CC(=O)c1cnc2ccc(-c3cc(F)c(O)c(Cl)c3)cc2c1Nc1ccc(CCN(C)C)cc1 turned out to be 0.99 µM

Reported IC50 of O=C(c1cnc2ccc(-c3cc(F)c(O)c(Cl)c3)cc2c1NC1CCC(N2CCC(F)(F)C2)CC1)C1CC1 (centres unmarked) : 4.4 µM

// recorded IC50 for CN(C)CCc1cccc(Nc2c(C(=O)C3CC3)cnc3ccc(-c4cc(F)c(O)c(F)c4)cc23)c1 : 0.67 µM
